All values here come from ChEMBL document CHEMBL1141003.

Lab note: MIC readings collected with Aspergillus flavus for the following molecules.
Parameter: MIC (µg/mL)

>>> observed("C[C@@H](S[C@H]1CO[C@H](/C=C/C=C/c2ccc(C(F)(F)F)cc2)OC1)[C@](O)(Cn1cncn1)c1ccc(F)cc1F.O=C(O)C(=O)O")
0.5
>>> observed("C[C@@H](S[C@H]1CO[C@H](/C=C/c2ccc(C(F)(F)F)cc2)OC1)[C@](O)(Cn1cncn1)c1ccc(F)cc1F")
1
>>> observed("C[C@@H](C[C@H]1CO[C@H](c2ccc(C(F)(F)F)cc2)OC1)[C@](O)(Cn1cncn1)c1ccc(F)cc1F.O=C(O)C(=O)O")
1
>>> observed("C[C@@H](C[C@H]1CO[C@H](/C=C/C=C/C=C/c2ccc(C(F)(F)F)cc2)OC1)[C@](O)(Cn1cncn1)c1ccc(F)cc1F.O=C(O)C(=O)O")
1
